Target: SARM1 (Homo sapiens, UniProt Q6SZW1)
Construct: inventors produced full-length SARM1 for NAD enzyme activity experiments, and used it for screening; His (C); made in house; host or cells: HEK293 cells, transient transfection; supernatant of digitonin lysate, no further purification described
Sequence (Q6SZW1 28-724, species assumed): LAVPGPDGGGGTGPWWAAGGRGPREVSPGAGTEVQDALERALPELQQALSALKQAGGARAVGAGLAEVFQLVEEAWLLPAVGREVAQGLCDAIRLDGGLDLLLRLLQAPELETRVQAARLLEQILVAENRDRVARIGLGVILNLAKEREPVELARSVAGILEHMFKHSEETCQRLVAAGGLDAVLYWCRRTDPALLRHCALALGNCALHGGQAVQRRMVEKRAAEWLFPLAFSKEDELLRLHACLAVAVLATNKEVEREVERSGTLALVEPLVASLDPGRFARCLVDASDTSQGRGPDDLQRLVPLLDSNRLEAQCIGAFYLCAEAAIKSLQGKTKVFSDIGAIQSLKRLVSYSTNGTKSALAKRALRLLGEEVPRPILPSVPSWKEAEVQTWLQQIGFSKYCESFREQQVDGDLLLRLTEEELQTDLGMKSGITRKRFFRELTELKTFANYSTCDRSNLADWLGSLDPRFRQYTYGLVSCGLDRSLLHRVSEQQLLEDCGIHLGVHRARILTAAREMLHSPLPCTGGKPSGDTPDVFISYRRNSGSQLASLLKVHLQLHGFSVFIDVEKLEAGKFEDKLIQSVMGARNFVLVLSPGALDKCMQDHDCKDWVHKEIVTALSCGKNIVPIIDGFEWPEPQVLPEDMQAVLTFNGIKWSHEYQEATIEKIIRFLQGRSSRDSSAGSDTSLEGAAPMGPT
Assay: In vitro biochemical assay for inhibiting SARM1 enzyme activity (PC6 fluorescence, NADase)
Conditions: full-length SARM1 from transfected HEK293 cells; 50 µM NAD, 50 µM PC6, 50 µM NMN activator; room temperature, 30 minutes
pIC50: −log10 of the molar value.
property_label: pIC50

pIC50 reading for Fc1ccc(CNC(=S)Nc2ccc3c(c2)COc2cnccc2-3)cc1 [Compound 77] : > 7.00
